Target: Monoglyceride lipase (Mus musculus, UniProt O35678)
Sequence (O35678 whole entry): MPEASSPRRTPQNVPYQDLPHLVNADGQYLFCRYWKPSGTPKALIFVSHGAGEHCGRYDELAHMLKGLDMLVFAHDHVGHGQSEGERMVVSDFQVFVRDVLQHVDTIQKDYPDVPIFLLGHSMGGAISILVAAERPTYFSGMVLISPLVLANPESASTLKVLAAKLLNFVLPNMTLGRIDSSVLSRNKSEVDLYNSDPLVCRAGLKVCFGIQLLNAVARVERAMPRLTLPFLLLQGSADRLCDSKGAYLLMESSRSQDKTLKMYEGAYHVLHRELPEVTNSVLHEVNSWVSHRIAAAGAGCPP
Assay: Inhibition of mouse MAGL expressed in COS-7 cells using 2-[3H]AG as substrate incubated for 30 mins by liquid scintillation analysis
pIC50: −log10 of the molar value.

>  <Molecule>
CC/C=C\C/C=C\C/C=C\CCCCCCCC(=O)OCC1CO1 (stereo unspecified)

>  <pIC50>
3.57

$$$$

---

IC50 listing for selected compounds.
Molecular target: Fatty-acid amide hydrolase 1 (Mus musculus)
Sequence (O08914 whole entry): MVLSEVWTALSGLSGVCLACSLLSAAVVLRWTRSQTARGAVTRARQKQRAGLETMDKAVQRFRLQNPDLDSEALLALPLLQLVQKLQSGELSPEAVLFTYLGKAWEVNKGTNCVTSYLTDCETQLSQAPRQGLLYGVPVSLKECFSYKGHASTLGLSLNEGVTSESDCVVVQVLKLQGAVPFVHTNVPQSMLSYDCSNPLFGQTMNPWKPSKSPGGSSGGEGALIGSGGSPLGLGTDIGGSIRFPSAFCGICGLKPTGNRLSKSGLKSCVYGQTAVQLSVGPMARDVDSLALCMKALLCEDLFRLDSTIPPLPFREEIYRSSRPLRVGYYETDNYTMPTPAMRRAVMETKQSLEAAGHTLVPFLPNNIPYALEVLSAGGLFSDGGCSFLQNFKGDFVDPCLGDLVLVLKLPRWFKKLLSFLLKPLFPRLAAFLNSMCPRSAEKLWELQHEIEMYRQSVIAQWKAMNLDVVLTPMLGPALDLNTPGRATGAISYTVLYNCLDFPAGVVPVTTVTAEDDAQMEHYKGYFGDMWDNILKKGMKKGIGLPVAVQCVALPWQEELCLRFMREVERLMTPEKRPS
Assay: Inhibition of mouse FAAH expressed in COS-7 cells using [3H]AEA as substrate incubated for 30 mins by liquid scintillation analysis
Assay endpoint: IC50

>  <Compound>
CC/C=C\C/C=C\C/C=C\CCCCCCCC(=O)OCC1CO1 (configuration not stated)

>  <System under test>
Fatty-acid amide hydrolase 1 (Mus musculus)

>  <Reported value>
900 nM

$$$$
>  <Compound>
CCCCCC/C=C\CCCCCCCC(=O)OCC1CO1 (configuration not stated)

>  <System under test>
Fatty-acid amide hydrolase 1 (Mus musculus)

>  <Reported value>
4000 nM

$$$$

---

Target: Monoacylglycerol lipase ABHD6 (Mus musculus, UniProt Q8R2Y0)
Sequence (Q8R2Y0 whole entry): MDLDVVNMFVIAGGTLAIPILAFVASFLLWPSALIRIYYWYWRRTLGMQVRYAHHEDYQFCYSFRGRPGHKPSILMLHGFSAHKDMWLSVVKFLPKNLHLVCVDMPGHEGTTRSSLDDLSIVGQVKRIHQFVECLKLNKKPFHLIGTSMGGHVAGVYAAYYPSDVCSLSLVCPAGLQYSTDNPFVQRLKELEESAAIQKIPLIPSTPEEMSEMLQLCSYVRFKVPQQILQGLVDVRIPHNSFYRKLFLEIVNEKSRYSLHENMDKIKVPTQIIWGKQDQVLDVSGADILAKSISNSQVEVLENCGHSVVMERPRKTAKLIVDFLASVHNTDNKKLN
Experiment: Inhibition of ABHD6 in mouse brain membrane using HT-01 probe as substrate incubated for 30 mins by gel based competitive ABPP assay
Type: cell membranes
IC50 values by entry
Assay endpoint: IC50 (nM)

>  <Compound>
CC(C)(C)OC(=O)N1CCN(C(=O)n2cc(-c3ccc(OC(F)(F)F)cc3)nn2)C(c2ccccc2)C1 (stereo not drawn)

>  <Value unit>
nM

>  <Reported value>
20

$$$$
>  <Compound>
C#CCO[C@@H]1CC[C@H](Cc2ccccc2)N(C(=O)n2ncc(C(O)(c3ccc(F)cc3)c3ccc(F)cc3)n2)C1

>  <Value unit>
nM

>  <Reported value>
126

$$$$
>  <Compound>
CC(C)(C)OC(=O)N1CCN(C(=O)n2cc(-c3ccc(OC(F)(F)F)cc3)nn2)C(Cc2ccccc2)C1 (stereo not drawn)

>  <Value unit>
nM

>  <Reported value>
79

$$$$

---

Target: Monoacylglycerol lipase ABHD6 (Homo sapiens)
Sequence (Q9BV23 whole entry): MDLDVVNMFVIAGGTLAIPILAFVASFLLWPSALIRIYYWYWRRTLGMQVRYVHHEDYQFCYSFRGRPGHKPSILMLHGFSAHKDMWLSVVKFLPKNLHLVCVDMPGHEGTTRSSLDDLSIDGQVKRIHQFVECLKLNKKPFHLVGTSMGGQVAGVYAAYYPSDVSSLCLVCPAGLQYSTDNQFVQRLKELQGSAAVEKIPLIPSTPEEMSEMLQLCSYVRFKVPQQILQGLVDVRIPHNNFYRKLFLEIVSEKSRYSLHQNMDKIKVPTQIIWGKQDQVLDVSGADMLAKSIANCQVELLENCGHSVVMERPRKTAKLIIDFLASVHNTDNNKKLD
Experiment: Inhibition of ABHD6 (unknown origin)

>  <Compound>
COC(=O)[C@]1(C)CC[C@]2(C)CC[C@]3(C)C4=CC=C5C(=CC(=O)C(O)=C5C)[C@]4(C)CC[C@@]3(C)[C@@H]2C1 [PRISTIMERIN]

>  <IC50>
1300 nM

$$$$

// provenance: ChEMBL document CHEMBL5233244
